The values you see were collected from paper PMC5540273.

tested on: BMX; conditions: concentration: 1 μM,replicates: in singlicate; n = 1;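 also: KINOMEscan kinase panel screen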
Outcome: 1 for %Inh of at least 4%; 0 for anything lower.

Consider the worked cases shown below.
Compound | Answer label
CC(C)N1C(=O)Cc2cc(Nc3ncc(C(F)(F)F)c(NCc4cccc(S(C)(=O)=O)c4)n3)ccc21 | 1
Cc1cc2cn[nH]c2cc1-c1cccc2c(N)c(C(N)=O)nnc12 | 1
CCn1c(-c2nonc2N)nc2c(C#CC(C)(C)O)nc(OCCN)cc21.Cl.Cl | 1
Cl.Oc1cc(-c2nc(-c3ccccc3)[nH]c2-c2ccncc2)ccc1Cl | 0

// query Threshold query (%Inh >= 4%) on C[C@H]1Oc2cc(cnc2N)-c2c(nn(C)c2C#N)CN(C)C(=O)c2ccc(F)cc21
// result 1

// query Hello, I need to know if Cl.Cl.Nc1nc(-c2ccc3c(N)n[nH]c3c2)cc(N2CCCC(NC(=O)c3ccccc3)C2)n1 (centres unmarked) has measured %Inh not below 4%. Thanks!
// result 0
